System: Arthrobacter 2 (Arthrobacter humicola)
assay: relative growth (AUC of 72 h growth curve relative to DMSO control, dAUC) (ratio); higher = more growth (less inhibition), active = hit call of the paper
assay context: 20 µM
Please enter yes where relative growth is greater than or equal to 0.9, and no where it is lower.

[
  {
    "molecule": "CC1(C)[C@H](/C=C(\\Cl)C(F)(F)F)[C@@H]1C(=O)OC(C#N)c1cccc(Oc2ccccc2)c1 (stereo partly drawn)",
    "class label": "no"
  }
]

Enquiry: Answer whether relative growth of COCC(=O)N(c1c(C)cccc1C)[C@H](C)C(=O)OC is greater than or equal to 0.9.
Return: yes

---

Recorded measurements of relative growth, one per entry
Tested on: Community 7
assay: relative growth (AUC of 72 h growth curve relative to DMSO control, dAUC) (ratio); higher = more growth (less inhibition), active = hit call of the paper
assay context: 20 µM
Please give only the number in your answer, with no unit.

The examples below pair each entry with its known result.
[
  {
    "compound": "Cc1cc(C(F)(C(F)(F)F)C(F)(F)F)ccc1NC(=O)c1cccc(I)c1C(=O)NC(C)(C)CS(C)(=O)=O",
    "relative growth": 1.15
  },
  {
    "compound": "O=C1C2(Cl)C3(Cl)C4(Cl)C(Cl)(Cl)C5(Cl)C3(Cl)C1(Cl)C5(Cl)C24Cl (stereo not given)",
    "relative growth": 1.14
  },
  {
    "compound": "COc1ccc(-c2ccccc2)cc1NNC(=O)OC(C)C",
    "relative growth": 0.932
  }
]

Enquiry: Form field: relative growth recorded for CNC(=O)Oc1cccc(/N=C/N(C)C)c1 with Community 7 (enter value)
Return: 1.15

Enquiry: Try this compound too: CC(C)NC(=O)N1CC(=O)N(c2cc(Cl)cc(Cl)c2)C1=O
Return: 1.07

---

System: Neobacillus 1 (Neobacillus soli)
assay: relative growth (AUC of 72 h growth curve relative to DMSO control, dAUC) (ratio); higher = more growth (less inhibition), active = hit call of the paper
assay context: 20 µM
endpoint name: relative growth

The examples below pair each entry with its known result.
[
  {
    "molecule": "CCc1nn(C)c(C(=O)NCc2ccc(Oc3ccc(C)cc3)cc2)c1Cl",
    "recorded measurement": "1.05 (inactive)"
  },
  {
    "molecule": "CCCN(CCOc1c(Cl)cc(Cl)cc1Cl)C(=O)n1ccnc1",
    "recorded measurement": "1.05 (inactive)"
  },
  {
    "molecule": "Cc1cc(C(C#N)c2ccc(Cl)cc2)c(Cl)cc1NC(=O)c1cc(I)cc(I)c1O (stereo not drawn)",
    "recorded measurement": "0.729 (active)"
  }
]

Enquiry: Need relative growth, item OC(Cc1ccccc1Cl)(Cn1nc[nH]c1=S)C1(Cl)CC1 (stereo not drawn)
Return: 1.05 (inactive)

Enquiry: Try this molecule too: CC(C)N(C(=O)COc1nnc(C(F)(F)F)s1)c1ccc(F)cc1
Return: 0.965 (inactive)

Enquiry: Try this molecule too: O=[N+]([O-])/N=C1\NCCN1Cc1ccc(Cl)nc1
Return: 1.06 (inactive)

---

System: Paenibacillus 1 (Paenibacillus castaneae)
assay: relative growth (AUC of 72 h growth curve relative to DMSO control, dAUC) (ratio); higher = more growth (less inhibition), active = hit call of the paper
assay context: 20 µM
Recorded measurements of relative growth, one per entry
Please give only the number in your answer, with no unit.

The examples below pair each entry with its known result.
[
  {
    "molecule": "C[C@@H]1[C@@H](c2ccc(Cl)cc2)SC(=O)N1C(=O)NC1CCCCC1",
    "relative growth": 1.02
  },
  {
    "molecule": "CCc1nn(C)c(C(=O)NCc2ccc(Oc3ccc(C)cc3)cc2)c1Cl",
    "relative growth": 1
  },
  {
    "molecule": "COc1ncc(F)c2nc(S(=O)(=O)Nc3c(F)cccc3F)nn12",
    "relative growth": 1.06
  },
  {
    "molecule": "CNC(=O)Oc1cccc2ccccc12",
    "relative growth": 1
  },
  {
    "molecule": "COc1ccc(-c2ccccc2)cc1NNC(=O)OC(C)C",
    "relative growth": 0.873
  }
]

Now look at this entry.
Enquiry: Need relative growth, item O=C(NC(=O)c1c(F)cccc1F)Nc1ccc(OC(F)(F)C(F)OC(F)(F)F)c(Cl)c1 (centres undefined)
Return: 0.957
